experimentalContext: in DMF, 278.15 K
assayMetric: solubility (mole fraction)

Given `CN(C)/C=C/C(=O)c1cccnc1` , state its recorded solubility (mole fraction).
0.0897

---

experimentalContext: in methanol, 308.15 K
assayMetric: solubility (mole fraction)
Answers are plain numbers.

Given `CN(C)/C=C/C(=O)c1cccnc1` , state its recorded solubility (mole fraction).
0.0476

---

experimentalContext: in n-propanol, 328.15 K
assayMetric: solubility (mole fraction)
Answers are plain numbers.

Consider the compound shown here: `CN(C)/C=C/C(=O)c1cccnc1` What is its recorded solubility (mole fraction)?
0.0604

---

experimentalContext: in n-propanol, 303.15 K
assayMetric: solubility (mole fraction)
Give bare numbers.

Entry `CN(C)/C=C/C(=O)c1cccnc1` has what solubility (mole fraction)?
0.0331
